- Test system: Reticulitermes speratus
- METHOD_SUMMARY: Antifeedant activity against Reticulitermes speratus assessed per disk after 30 days by no-choice bioassay
- Format: functional
Mark met only for PC50 values smaller than 70 µg; exact matches and larger values are not met.

Some solved entries appear below for comparison.
{"COMPOUND": "C/C=C(\\C)C(=O)O[C@H]1C[C@@H](O)[C@@]2(C)CO[C@H]3[C@H]4O[C@@H]5C[C@@H](c6ccoc6)C(C)=C5[C@@]4(C)[C@H](CC(=O)OC)[C@]1(C)[C@@H]32 [DESACETYL SALANNIN]", "QUALITATIVE_LABEL": "met"}
{"COMPOUND": "CC1(C)C(=O)C=C[C@]2(C)[C@H]3CC[C@@]4(C)[C@H](c5ccoc5)OC(=O)[C@H]5O[C@]54[C@]3(C)[C@H](O)C[C@@H]12 [DEACETYLGEDUNIN]", "QUALITATIVE_LABEL": "met"}
{"COMPOUND": "CC(=O)O[C@@H]1C[C@H]2C(C)(C)C(=O)C=C[C@]2(C)[C@H]2CC[C@]3(C)C(=CC(=O)[C@@]3(O)c3ccoc3)[C@@]21C [17-HYDROXYAZADIRADIONE]", "QUALITATIVE_LABEL": "met"}

[in] Hello, is PC50 of the following compound strictly smaller than 70 µg? CC(=O)O[C@@H]1C[C@H]2C(C)(C)C(=O)C=C[C@]2(C)[C@H]2CC[C@]3(C)C(=CC(=O)[C@H]3c3ccoc3)[C@@]21C [AZADIRADIONE]
[out] not met

[in] Hello, is PC50 of the following compound strictly smaller than 70 µg? C/C=C(/C)C(=O)O[C@H]1C[C@@H](OC(C)=O)[C@@]2(C)CO[C@H]3[C@H]4O[C@@H]5C[C@@H](c6ccoc6)C(C)=C5[C@@]4(C)[C@H](CC(=O)OC)[C@]1(C)[C@@H]32 [SALANNIN]
[out] met

* * *

- Test system: Reticulitermes speratus
- METHOD_SUMMARY: Antifeedant activity against Reticulitermes speratus assessed as survival at 400 ug/disk after 30 days by no-choice bioassay (reference value: 92.5%)
- Type: functional
- ASSAY_CONDITIONS: 720 h
MEASURE: survival at 400 µg/disc (%)
Please state the figure in %; there is no need to write the unit.

In the examples that follow, each entry is paired with its recorded survival at 400 µg/disc.
{"COMPOUND": "CC(=O)O[C@@H]1C[C@H]2C(C)(C)C(=O)C=C[C@]2(C)[C@H]2CC[C@@]3(C)[C@H](c4ccoc4)C(=O)[C@H]4O[C@]43[C@@]21C [EPOXYAZADIRADIONE]", "UNITS_TEXT": "%", "survival at 400 µg/disc": 64}
{"COMPOUND": "CC(=O)O[C@@H]1C[C@H]2C(C)(C)C(=O)C=C[C@]2(C)[C@H]2CC[C@]3(C)C(=CC(=O)[C@H]3c3ccoc3)[C@@]21C [AZADIRADIONE]", "UNITS_TEXT": "%", "survival at 400 µg/disc": 24.5}
{"COMPOUND": "COC(=O)C[C@H]1[C@]2(C)C3=C(C)[C@H](c4ccoc4)C[C@H]3O[C@@H]2[C@H](OC(C)=O)[C@@H]2[C@]1(C)C(=O)C=C[C@@]2(C)C(=O)OC [NIMBIN]", "UNITS_TEXT": "%", "survival at 400 µg/disc": 83}
{"COMPOUND": "CC(=O)O[C@@H]1C[C@H]2C(C)(C)C(=O)C=C[C@]2(C)[C@H]2CC[C@]3(C)C(=CC(=O)[C@@H]3c3ccoc3)[C@@]21C [17-EPIAZADIRADIONE]", "UNITS_TEXT": "%", "survival at 400 µg/disc": 86.5}

[in] survival at 400 µg/disc lookup needed for C/C=C(\C)C(=O)O[C@H]1C[C@@H](O)[C@@]2(C)CO[C@H]3[C@H]4O[C@@H]5C[C@@H](c6ccoc6)C(C)=C5[C@@]4(C)[C@H](CC(=O)OC)[C@]1(C)[C@@H]32 [DESACETYL SALANNIN] , thanks.
[out] 44

* * *

- Tested on: Reticulitermes speratus
- METHOD_SUMMARY: Antifeedant activity against Reticulitermes speratus assessed as survival at 300 ug/disk after 30 days by no-choice bioassay (reference value: 92.5%)
- Type: functional
- ASSAY_CONDITIONS: 720 h
Response key: 1 means survival at 300 µg/disc >= 70%; 0 means survival at 300 µg/disc < 70%.

Some solved entries appear below for comparison.
{"COMPOUND": "CC(=O)O[C@@H]1C[C@H]2C(C)(C)C(=O)C=C[C@]2(C)[C@H]2CC[C@@]3(C)[C@H](c4ccoc4)C(=O)[C@H]4O[C@]43[C@@]21C", "QUALITATIVE_LABEL": 1}
{"COMPOUND": "CC(=O)O[C@@H]1C[C@H]2C(C)(C)C(=O)C=C[C@]2(C)[C@H]2CC[C@]3(C)C(=CC(=O)[C@@H]3c3ccoc3)[C@@]21C [17-EPIAZADIRADIONE]", "QUALITATIVE_LABEL": 1}
{"COMPOUND": "COC(=O)C[C@H]1[C@]2(C)C3=C(C)[C@H](c4ccoc4)C[C@H]3O[C@@H]2[C@H](O)[C@@H]2[C@]1(C)C(=O)C=C[C@@]2(C)C(=O)OC", "QUALITATIVE_LABEL": 1}

[in] Check this compound for survival at 300 µg/disc at or above 70%: CC(=O)O[C@@H]1C[C@H]2C(C)(C)C(=O)C=C[C@]2(C)[C@H]2CC[C@]3(C)C(=CC(=O)[C@H]3c3ccoc3)[C@@]21C
[out] 0

[in] Check this compound for survival at 300 µg/disc at or above 70%: CC(=O)O[C@@H]1C[C@H]2C(C)(C)C(=O)C=C[C@]2(C)[C@H]2CC[C@]3(C)C(=CC(=O)[C@@]3(O)c3ccoc3)[C@@]21C [17-HYDROXYAZADIRADIONE]
[out] 0

[in] Check this compound for survival at 300 µg/disc at or above 70%: COC(=O)C[C@H]1[C@]2(C)C3=C(C)[C@H](c4ccoc4)C[C@H]3O[C@@H]2[C@H](OC(C)=O)[C@@H]2[C@]1(C)C(=O)C=C[C@@]2(C)C(=O)OC
[out] 1

[in] Check this compound for survival at 300 µg/disc at or above 70%: C/C=C(\C)C(=O)O[C@H]1C[C@@H](O)[C@@]2(C)CO[C@H]3[C@H]4O[C@@H]5C[C@@H](c6ccoc6)C(C)=C5[C@@]4(C)[C@H](CC(=O)OC)[C@]1(C)[C@@H]32
[out] 0

* * *

As shown below, each of these compounds has a reported PC95 value.
- System: Reticulitermes speratus
- METHOD_SUMMARY: Antifeedant activity against Reticulitermes speratus assessed per disk after 30 days by no-choice bioassay
- Type: functional
Please state the figure in µg; there is no need to write the unit.

In the examples that follow, each entry is paired with its recorded PC95.
{"COMPOUND": "C/C=C(\\C)C(=O)O[C@H]1C[C@@H](O)[C@@]2(C)CO[C@H]3[C@H]4O[C@@H]5C[C@@H](c6ccoc6)C(C)=C5[C@@]4(C)[C@H](CC(=O)OC)[C@]1(C)[C@@H]32 [DESACETYL SALANNIN]", "TARGET_UNDER_TEST": "Reticulitermes speratus", "MEASURE": "PC95", "REPORTED_MEASUREMENT": 1373.1}
{"COMPOUND": "CC1(C)C(=O)C=C[C@]2(C)[C@H]3CC[C@@]4(C)[C@H](c5ccoc5)OC(=O)[C@H]5O[C@]54[C@]3(C)[C@H](O)C[C@@H]12 [DEACETYLGEDUNIN]", "TARGET_UNDER_TEST": "Reticulitermes speratus", "MEASURE": "PC95", "REPORTED_MEASUREMENT": 113.7}
{"COMPOUND": "CC(=O)O[C@@H]1C[C@H]2C(C)(C)C(=O)C=C[C@]2(C)[C@H]2CC[C@@]3(C)[C@H](c4ccoc4)OC(=O)[C@H]4O[C@]43[C@@]21C [GEDUNIN]", "TARGET_UNDER_TEST": "Reticulitermes speratus", "MEASURE": "PC95", "REPORTED_MEASUREMENT": 218.4}

[in] What value of PC95 on Reticulitermes speratus does C/C=C(/C)C(=O)O[C@H]1C[C@@H](OC(C)=O)[C@@]2(C)CO[C@H]3[C@H]4O[C@@H]5C[C@@H](c6ccoc6)C(C)=C5[C@@]4(C)[C@H](CC(=O)OC)[C@]1(C)[C@@H]32 [SALANNIN] have?
[out] 203.3

[in] What value of PC95 on Reticulitermes speratus does CC(=O)O[C@@H]1C[C@H]2C(C)(C)C(=O)C=C[C@]2(C)[C@H]2CC[C@]3(C)C(=CC(=O)[C@@]3(O)c3ccoc3)[C@@]21C [17-HYDROXYAZADIRADIONE] have?
[out] 235.6

[in] What value of PC95 on Reticulitermes speratus does COC(=O)C[C@H]1[C@]2(C)C3=C(C)[C@H](c4ccoc4)C[C@H]3O[C@@H]2[C@H](O)[C@@H]2[C@]1(C)C(=O)C=C[C@@]2(C)C(=O)OC [DEACETYLNIMBIN] have?
[out] 1581.2

[in] What value of PC95 on Reticulitermes speratus does COC(=O)C[C@H]1[C@]2(C)C3=C(C)[C@H](c4ccoc4)C[C@@H]3O[C@@H]2[C@H](O)[C@@H]2[C@@]1(C)C(=O)C=C[C@@]2(C)O have?
[out] 245.4

[in] What value of PC95 on Reticulitermes speratus does CC(=O)O[C@@H]1C[C@H]2C(C)(C)C(=O)C=C[C@]2(C)[C@H]2CC[C@]3(C)C(=CC(=O)[C@H]3c3ccoc3)[C@@]21C [AZADIRADIONE] have?
[out] 827.5

Data credit: ChEMBL document CHEMBL3045142
